Test system: Proto-oncogene tyrosine-protein kinase receptor Ret (Homo sapiens), P07949 [Y791F]
Sequence (P07949 whole entry Y791F): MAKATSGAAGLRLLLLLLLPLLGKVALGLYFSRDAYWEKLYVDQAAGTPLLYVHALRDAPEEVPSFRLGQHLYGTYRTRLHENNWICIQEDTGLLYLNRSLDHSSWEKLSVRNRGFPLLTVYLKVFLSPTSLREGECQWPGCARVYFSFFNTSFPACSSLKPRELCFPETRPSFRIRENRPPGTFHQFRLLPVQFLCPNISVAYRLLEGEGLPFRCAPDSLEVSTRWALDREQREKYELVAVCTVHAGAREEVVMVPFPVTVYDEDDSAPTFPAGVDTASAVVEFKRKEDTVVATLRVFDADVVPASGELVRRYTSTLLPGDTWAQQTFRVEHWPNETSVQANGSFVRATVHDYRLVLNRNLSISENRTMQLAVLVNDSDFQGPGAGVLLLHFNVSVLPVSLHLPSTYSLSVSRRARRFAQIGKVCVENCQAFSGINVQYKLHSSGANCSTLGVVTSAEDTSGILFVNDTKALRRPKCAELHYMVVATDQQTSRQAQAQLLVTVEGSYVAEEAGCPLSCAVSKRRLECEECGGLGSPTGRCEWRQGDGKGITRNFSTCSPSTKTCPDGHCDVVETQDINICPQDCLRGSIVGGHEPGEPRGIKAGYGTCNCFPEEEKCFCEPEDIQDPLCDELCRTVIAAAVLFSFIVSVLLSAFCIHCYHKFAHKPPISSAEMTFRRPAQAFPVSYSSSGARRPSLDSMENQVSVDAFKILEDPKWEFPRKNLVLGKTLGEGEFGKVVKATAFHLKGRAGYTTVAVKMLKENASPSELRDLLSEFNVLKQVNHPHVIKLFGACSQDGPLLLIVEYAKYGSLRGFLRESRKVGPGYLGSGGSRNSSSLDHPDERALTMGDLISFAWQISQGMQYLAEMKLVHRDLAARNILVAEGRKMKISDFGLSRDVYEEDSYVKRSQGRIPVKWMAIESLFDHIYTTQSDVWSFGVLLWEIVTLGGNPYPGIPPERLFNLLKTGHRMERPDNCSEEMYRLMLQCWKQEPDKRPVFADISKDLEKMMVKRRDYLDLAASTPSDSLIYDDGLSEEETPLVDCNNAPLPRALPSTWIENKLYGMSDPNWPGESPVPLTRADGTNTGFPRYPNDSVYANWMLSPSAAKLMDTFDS
measurementContext: at 1 µM
Decide using inhibition: a value greater than or equal to 30% is Met, a smaller one is Not met.

[ask] // inclusive: inhibition at least 30%? input: O=C(NCC1CC1)c1ccc(-c2cccc(C(=O)NC3CC3)c2)cc1
[reply] Not met

[ask] // inclusive: inhibition at least 30%? input: c1ccc(Oc2ccc(Nc3ncc(-c4ccccc4)o3)cc2)cc1
[reply] Not met

[ask] // inclusive: inhibition at least 30%? input: COc1cc(Nc2ncc3c(C)nc(-c4cccc(C(F)(F)F)c4)n3n2)cc(OC)c1OC
[reply] Met

[ask] // inclusive: inhibition at least 30%? input: C#Cc1cccc(Nc2ncnc3ccc(OCCCCNCCS(C)(=O)=O)cc23)c1
[reply] Met

[ask] // inclusive: inhibition at least 30%? input: CN(c1ccc(NC(=O)Nc2c(Cl)cccc2Cl)cc1)c1ccnc(Nc2cccc(CS(C)(=O)=O)c2)n1
[reply] Met

###

System: Tyrosine-protein kinase ABL1 (Homo sapiens), P00519 [Q252H]
measurementContext: at 1 µM
Grouping by measured inhibition is done with the following cut points: low class = under 6%, middle class = from 6% up to 30%, high class = 30% and over

[ask] Class (by measured inhibition) for N#Cc1ccc(Oc2nccc(-c3c(-c4ccc(F)cc4)ncn3C3CCNCC3)n2)cc1
[reply] middle class

[ask] Class (by measured inhibition) for C/C(Nc1ccc(S(N)(=O)=O)cc1)=C1/C(=O)Nc2ccccc21
[reply] middle class

[ask] Class (by measured inhibition) for Fc1ccc(-c2ncn(C3CCNCC3)c2-c2ccnc(Oc3ccc4c(c3)OCO4)n2)cc1
[reply] middle class

[ask] Class (by measured inhibition) for FC(F)(F)c1cccc(Nc2nccc(-c3cnn4nc(-c5ccccc5)ccc34)n2)c1
[reply] low class

[ask] Class (by measured inhibition) for COC(=O)Nc1nc2ccc(Sc3ccc(NC(=O)Nc4cc(C(F)(F)F)ccc4F)cc3)cc2[nH]1
[reply] high class

[ask] Class (by measured inhibition) for c1ccc(-c2n[nH]cc2-c2ccnc(-c3ccc(OCCN4CCOCC4)cc3)c2)nc1
[reply] high class

[ask] Class (by measured inhibition) for Fc1ccc(-c2ncn(C3CCNCC3)c2-c2ccnc(Oc3ccc(Oc4ccccc4)cc3)n2)cc1
[reply] low class

[ask] Class (by measured inhibition) for COc1ccc2ncn(-c3cc(O[C@H](C)c4ccccc4Cl)c(C(N)=O)s3)c2c1
[reply] low class

[ask] Class (by measured inhibition) for Fc1ccc(-c2nc3n(c2-c2ccncc2)CCS3)cc1
[reply] low class

[ask] Class (by measured inhibition) for c1ccc(Oc2ccc(Nc3ncc(-c4ccccc4)o3)cc2)cc1
[reply] low class

[ask] Class (by measured inhibition) for NC(=O)c1cc(-c2ccncc2)cc(-c2ccccc2)c1N
[reply] high class

[ask] Class (by measured inhibition) for NS(=O)(=O)c1ccc(Nc2cc(-c3ccc(O)c(F)c3)n[nH]2)cc1
[reply] middle class

[ask] Class (by measured inhibition) for CCc1nccc2c1nc(-c1nonc1N)n2CC
[reply] low class

[ask] Class (by measured inhibition) for CCS(=O)(=O)c1ccc(OC)c(Nc2ncc(-c3ccccc3Cl)o2)c1
[reply] middle class

[ask] Class (by measured inhibition) for CNC(=O)c1cncc(/C=C/c2c(C)cccc2C)c1
[reply] high class

[ask] Class (by measured inhibition) for COc1cc(C)c(N(C)C(=O)CN(C)C)cc1Nc1nc(Nc2cccc(F)c2C(N)=O)c2cc[nH]c2n1
[reply] low class

[ask] Class (by measured inhibition) for CN1CCN(CCCNc2nc3ccc(Oc4ccc(NC(=O)Nc5cc(C(F)(F)F)ccc5F)cc4)cc3[nH]2)CC1
[reply] high class

[ask] Class (by measured inhibition) for CN(C)CCOc1ccc(-c2cc(-c3ccc4c(c3)CCC4=NO)c(-c3ccncc3)o2)cc1
[reply] high class

[ask] Class (by measured inhibition) for CCN(CC)Cc1ccc(Nc2nccc(-c3cnn4ncccc34)n2)cc1
[reply] high class

Data provenance: ChEMBL document CHEMBL1961873
